System: PDE10 (Rattus norvegicus, UniProt Q9QYJ6)
Construct: from tissue; host or cells: rat brain sections, striatum (ex vivo autoradiography after in vivo dosing)
Sequence (Q9QYJ6 whole entry): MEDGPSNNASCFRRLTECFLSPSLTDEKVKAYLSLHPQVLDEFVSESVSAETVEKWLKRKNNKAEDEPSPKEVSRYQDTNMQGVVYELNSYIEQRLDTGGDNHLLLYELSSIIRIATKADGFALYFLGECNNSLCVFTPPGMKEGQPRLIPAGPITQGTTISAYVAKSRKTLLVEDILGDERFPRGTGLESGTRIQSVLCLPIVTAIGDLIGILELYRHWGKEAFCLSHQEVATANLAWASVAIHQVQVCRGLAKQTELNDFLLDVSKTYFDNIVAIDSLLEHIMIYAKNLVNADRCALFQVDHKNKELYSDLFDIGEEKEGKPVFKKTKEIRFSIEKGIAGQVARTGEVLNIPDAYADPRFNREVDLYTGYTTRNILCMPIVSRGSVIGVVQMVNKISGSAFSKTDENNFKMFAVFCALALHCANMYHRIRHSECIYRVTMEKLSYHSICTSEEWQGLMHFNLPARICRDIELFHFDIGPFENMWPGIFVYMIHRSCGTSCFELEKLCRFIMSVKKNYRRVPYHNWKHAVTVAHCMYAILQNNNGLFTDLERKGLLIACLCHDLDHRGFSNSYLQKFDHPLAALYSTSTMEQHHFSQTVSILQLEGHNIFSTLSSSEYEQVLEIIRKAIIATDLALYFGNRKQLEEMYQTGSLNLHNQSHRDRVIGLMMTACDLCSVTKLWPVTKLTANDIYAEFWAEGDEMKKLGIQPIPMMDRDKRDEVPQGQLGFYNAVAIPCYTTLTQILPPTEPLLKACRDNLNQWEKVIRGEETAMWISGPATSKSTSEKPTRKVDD
Assay explanation: PDE10 occupancy ([3H]-MP-10, striatum)
Assay type: in vivo
Condition parameters: 10 mg/kg, administered s.c.
Property: % Occ. at 10 mg/kg (%)
I only need the number, in %, no unit after it.

The recorded % Occ. at 10 mg/kg for COC(C)(C)Cn1cc(-c2c(C3CC3)nc3c(N4CCOCC4)nccn23)cn1 [compound 48] is 53

The recorded % Occ. at 10 mg/kg for entry COCCn1cc(-c2c(C)nc3c(-c4ccncc4)nccn23)cn1 [compound 34] equals 52

According to the records, this compound Cc1nc2c(N3CCOCC3)nccn2c1-c1ccnc(OC(C)C)c1 [compound 113] displays % Occ. at 10 mg/kg of 11

Recorded result, Cc1nc2c(-c3ccncc3)nccn2c1-c1cnn(CC(F)(F)F)c1 [compound 67] , % Occ. at 10 mg/kg: 55

Item: COC(C)(C)Cn1cc(-c2c(C)nc3c(-c4ccncc4)nccn23)cn1 [compound 78] | % Occ. at 10 mg/kg: 76

Record COCCn1cc(-c2c(C)nc3c(N4CCCC4)nccn23)cn1 [compound 130] . Reported % Occ. at 10 mg/kg: 10

Quick note, % Occ. at 10 mg/kg for Cc1nc2c(N3CCOCC3)nccn2c1-c1cnc(CC(C)C)s1 [compound 42] landed at 59

Lab note: measured % Occ. at 10 mg/kg of COCCn1cc(-c2c(C(F)(F)F)nc3c(N4CCOCC4)nccn23)cn1 [compound 118] was 0

% Occ. at 10 mg/kg recorded for this compound, COC(C)(C)Cn1cc(-c2c(C3CC3)nc3c(-c4ccncc4)nccn23)cn1 [compound 50] , is 72
